Each recorded value in this set is attributed to ChEMBL document CHEMBL4699590.

# procedure.details: Unbound fraction in human KG-1 tumor bearing mouse plasma at 25 mg/kg, po
# Format: ADME, organism-based

{"compound": "Cc1cn([C@@H](C)[C@]2(F)CCNC2)c2nc(C(N)=O)cc(Cl)c12 (stereo in doubt)", "fraction unbound": 0.055}

###

# target.under.test: Voltage-gated inwardly rectifying potassium channel KCNH2 (Homo sapiens, UniProt Q12809)
# Sequence (Q12809 whole entry): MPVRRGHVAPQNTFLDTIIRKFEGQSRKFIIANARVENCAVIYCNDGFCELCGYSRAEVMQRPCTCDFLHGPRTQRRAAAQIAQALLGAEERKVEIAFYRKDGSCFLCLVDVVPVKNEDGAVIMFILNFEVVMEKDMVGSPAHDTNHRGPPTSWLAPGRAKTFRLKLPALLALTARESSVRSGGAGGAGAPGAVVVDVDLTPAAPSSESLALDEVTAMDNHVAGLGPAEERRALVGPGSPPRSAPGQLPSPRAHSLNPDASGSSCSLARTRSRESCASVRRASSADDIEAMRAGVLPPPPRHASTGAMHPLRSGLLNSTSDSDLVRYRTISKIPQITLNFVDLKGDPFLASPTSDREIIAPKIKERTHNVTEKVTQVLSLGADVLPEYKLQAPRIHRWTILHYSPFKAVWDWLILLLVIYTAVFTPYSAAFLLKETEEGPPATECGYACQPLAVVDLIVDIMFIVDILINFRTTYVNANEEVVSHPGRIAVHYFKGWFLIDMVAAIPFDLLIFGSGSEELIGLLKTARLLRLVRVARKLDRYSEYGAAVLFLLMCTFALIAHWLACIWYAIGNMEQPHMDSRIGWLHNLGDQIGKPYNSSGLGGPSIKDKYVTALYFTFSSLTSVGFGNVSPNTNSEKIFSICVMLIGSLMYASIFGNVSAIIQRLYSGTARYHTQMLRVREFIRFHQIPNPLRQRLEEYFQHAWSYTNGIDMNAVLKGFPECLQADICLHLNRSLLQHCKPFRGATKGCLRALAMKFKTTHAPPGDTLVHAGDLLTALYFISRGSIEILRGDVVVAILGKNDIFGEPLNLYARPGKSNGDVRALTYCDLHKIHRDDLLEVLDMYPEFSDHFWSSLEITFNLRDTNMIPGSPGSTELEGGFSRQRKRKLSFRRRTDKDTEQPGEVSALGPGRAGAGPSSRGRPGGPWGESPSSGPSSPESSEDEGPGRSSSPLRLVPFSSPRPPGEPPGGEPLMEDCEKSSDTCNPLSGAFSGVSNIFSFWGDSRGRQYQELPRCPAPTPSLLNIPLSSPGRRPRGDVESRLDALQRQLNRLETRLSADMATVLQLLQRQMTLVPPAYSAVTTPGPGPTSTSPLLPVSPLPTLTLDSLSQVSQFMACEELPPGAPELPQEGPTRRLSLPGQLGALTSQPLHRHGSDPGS
# procedure.details: Inhibition of human ERG by patch clamp assay
pIC50: −log10 of the molar value.
Known pIC50 of a selection of molecules

{"molecule": "Cc1cn([C@@H](C)[C@]2(F)CCNC2)c2nc(C(N)=O)cc(Cl)c12 (stereo in doubt)", "target.under.test": "Voltage-gated inwardly rectifying potassium channel KCNH2 (Homo sapiens, UniProt Q12809)", "pIC50": 4.66}
{"molecule": "Cc1cn([C@H](C)[C@]2(F)CCNC2)c2nc(C(N)=O)cc(Cl)c12 (stereo in doubt)", "target.under.test": "Voltage-gated inwardly rectifying potassium channel KCNH2 (Homo sapiens, UniProt Q12809)", "pIC50": 4.52}

###

# procedure.details: Half life in rat at 3 mg/kg, iv
# Format: ADME, organism-based
# condition.set: in vivo
measured.parameter: half-life (h)

{"compound": "Cc1cn([C@@H](C)[C@]2(F)CCNC2)c2nc(C(N)=O)cc(Cl)c12 (stereo in doubt)", "measured.parameter": "half-life", "experimental.value": 2.7}

###

# procedure.details: Inhibition of PIM in human KG-1 cells assessed as reduction in PS6 level
# Assay type: cell-based
pEC50: −log10 of the molar value.
measured.parameter: pEC50

{"compound": "Cc1cn([C@@H](C)[C@H]2CCNC[C@H]2F)c2nc(C(N)=O)cc(Cl)c12 (racemic)", "experimental.value": 8.22}
{"compound": "Cc1cn([C@@H](C)[C@@]2(F)CCNC2)c2nc(C(N)=O)cc(Cl)c12 (stereo in doubt)", "experimental.value": 6.06}
{"compound": "Cc1cn([C@H](C)[C@@H]2CCNC[C@H]2F)c2nc(C(N)=O)cc(Cl)c12 (racemic)", "experimental.value": 7.62}
{"compound": "Cc1cn([C@H](C)[C@]2(F)CCNC2)c2nc(C(N)=O)cc(Cl)c12 (stereo in doubt)", "experimental.value": 5.69}
{"compound": "Cc1cn([C@@H](C)[C@]2(F)CCNC2)c2nc(C(N)=O)cc(Cl)c12 (stereo in doubt)", "experimental.value": 7.15}
{"compound": "Cc1cn([C@H](C)[C@H]2CCNC[C@@H]2F)c2nc(C(N)=O)cc(Cl)c12 (racemic)", "experimental.value": 7.28}
{"compound": "Cc1cn([C@@H](C)[C@@H]2CCNC[C@@H]2F)c2nc(C(N)=O)cc(Cl)c12 (racemic)", "experimental.value": 6.94}

###

# procedure.details: Volume of distribution at steady state in rat at 3 mg/kg, iv
# Type: ADME, organism-based
# condition.set: in vivo, read-out: Vdss
measured.parameter: Vd (L/kg)

{"compound": "Cc1cn([C@@H](C)[C@]2(F)CCNC2)c2nc(C(N)=O)cc(Cl)c12 (stereo in doubt)", "measured.parameter": "Vd", "experimental.value": 9.9}

###

# Test system: KG-1
# procedure.details: Cytotoxicity against human KG-1 cells assessed as reduction in cell viability
# Type: functional, cell-based

{"compound": "Cc1cn([C@@H](C)[C@]2(F)CCNC2)c2nc(C(N)=O)cc(Cl)c12 (stereo in doubt)", "EC50": "61 nM"}
{"compound": "Cc1cn([C@H](C)[C@@H]2CCNC[C@H]2F)c2nc(C(N)=O)cc(Cl)c12 (racemic)", "EC50": "20 nM"}
{"compound": "Cc1cn([C@H](C)[C@H]2CCNC[C@@H]2F)c2nc(C(N)=O)cc(Cl)c12 (racemic)", "EC50": "51 nM"}
{"compound": "Cc1cn([C@@H](C)[C@@H]2CCNC[C@@H]2F)c2nc(C(N)=O)cc(Cl)c12 (racemic)", "EC50": "195 nM"}
